system: T1, C-terminally FLAG-tagged human Gas6 recombinant protein (hGas6-F) (human, UniProt Q14393 31-678, gamma-carboxylated glutamic acid residues in the Gla domain (producer cells co-express rat VKOR and human GGCX); positions not given)
T1 construct: also called human Gas6-F; human Gas6 protein
T1 sequence: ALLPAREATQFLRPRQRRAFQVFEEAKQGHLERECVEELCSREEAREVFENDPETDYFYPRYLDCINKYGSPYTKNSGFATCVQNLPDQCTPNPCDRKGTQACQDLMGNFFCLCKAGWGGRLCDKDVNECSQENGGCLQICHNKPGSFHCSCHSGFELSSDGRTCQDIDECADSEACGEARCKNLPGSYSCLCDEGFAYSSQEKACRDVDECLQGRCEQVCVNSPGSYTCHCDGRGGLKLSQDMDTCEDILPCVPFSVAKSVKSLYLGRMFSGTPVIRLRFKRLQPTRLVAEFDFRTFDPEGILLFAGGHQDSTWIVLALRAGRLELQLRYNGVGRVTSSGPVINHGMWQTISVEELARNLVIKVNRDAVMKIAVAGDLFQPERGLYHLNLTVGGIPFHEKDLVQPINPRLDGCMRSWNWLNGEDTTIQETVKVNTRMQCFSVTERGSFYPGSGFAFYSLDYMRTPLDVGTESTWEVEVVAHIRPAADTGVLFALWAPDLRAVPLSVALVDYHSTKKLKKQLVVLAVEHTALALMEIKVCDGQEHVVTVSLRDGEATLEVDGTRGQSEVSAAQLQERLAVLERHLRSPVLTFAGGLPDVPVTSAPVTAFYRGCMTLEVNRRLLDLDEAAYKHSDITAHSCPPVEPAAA
assay method text: SPR Biacore T100, captured antibody, Gas6 analyte, first test
pKd: −log10 of the molar value.
experimental endpoint: pKd

>>> observed_result("hzKM5320 LV5HV3b antibody (antibody, V domains shown, Humanized; variant human IgG4 constant region (EU S228P, L235E, R409K), human kappa; also called A-22) VH: QIQLVQSGSELKKPGASVKISCKASGYTFTNYGMNWVRQAPGQGLEWMGWINTETGEPTYSDDFKGRFVFSLDTSVSTAYLQISSLKAEDTAVYFCAREDGYYGTLDYWGQGTTVTVSS VL: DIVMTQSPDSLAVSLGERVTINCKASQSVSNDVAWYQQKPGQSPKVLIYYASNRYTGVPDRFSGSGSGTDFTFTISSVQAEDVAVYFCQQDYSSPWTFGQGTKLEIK")
"> 8.70"
>>> observed_result("hzKM5321 LV1bHV7 antibody (antibody, V domains shown, Humanized; variant human IgG4 constant region (EU S228P, L235E, R409K), human kappa; also called B-14; LV1bHV7) VH: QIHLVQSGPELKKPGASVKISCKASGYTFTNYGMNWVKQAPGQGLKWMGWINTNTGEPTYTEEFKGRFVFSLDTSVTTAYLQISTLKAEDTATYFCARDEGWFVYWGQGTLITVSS VL: ETTLTQSPSSLSASVGDRVTITCITSTDIDDDMNWYQQKPGKAPKLLISEGNTLRPGVPSRFSGSGSGTDFTLTISSLQPEDFADYYCLQTDSVPLTFGQGTKVEIK")
"> 8.13"
>>> observed_result("KM5321 chimeric antibody (antibody, V domains shown, also called KM5321 chimera; B-01) VH: QIQLVQSGPELKKPGETVKISCRASGYTFTNYGMNWVKQAPGKGLKWMGWINTNTGEPTYTEEFKGRFAFSLETSATTAYLQINDLKNEDTATYFCARDEGWFVYWGQGTLITVSA VL: ETTVTQSPASLSVATGEKVTIRCITSTDIDDDMNWYQQKPGEPPKLLISEGNTLRPGVPSRFSSSGYGTDFVFTIENTLSEDVADYYCLQTDSVPLTFGAGTKLELK")
"> 8.94"
